# procedure summary: drug interaction study of vibegron and rifampin, pharmacokinetics
# Format: in vivo, human
# condition parameters: both sexes, human, in vivo, oral, 75 mg; read-out: t1/2, geometric mean (% CV) (converted)
endpoint label: half-life (h)
Expressed in h, but write only the number.

Consider `O=C(Nc1ccc(C[C@@H]2CC[C@H]([C@H](O)c3ccccc3)N2)cc1)[C@@H]1CCc2nccc(=O)n21` . Its measured half-life is 84
